Biological target: human Beta-secretase (BACE), BACE1 (gene 23621)
Experiment: NVS_ENZ_hBACE: NovaScreen (NVS) Enzymatic Assay for human Beta-secretase (BACE) (AID 2283140);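 note: hits are inhibitors that reduce fluorescent substrate signal versus DMSO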
Description: NVS_ENZ_hBACE is a biochemical, single-readout assay that uses extracted gene-proteins from SF9 in a cell-free assay. Measurements were taken 1 hour after chemical dosing in a 96-well plate.NVS_ENZ_hBACE is one of one assay component(s) measured or calculated from the NVS_ENZ_hBACE assay. […] This assay endpoint, NVS_ENZ_hBACE, was analyzed in the positive analysis fitting direction relative to DMSO as the negative control and baseline of activity. […]
Results filed as inconclusive are left out. Calls of active or inactive are those of the source. Rule for the calls: active = hit-call score of the fitted dose curve at least 0.9, where 1 is the maximum; inconclusive = response in the unintended direction; inactive = score below 0.9.
Labels: 1 (active), 0 (inactive)

{"columns": ["molecule", "classLabel"],
 "data": [
  ["CCOC(=O)C(C)(C)Oc1ccc(Cl)cc1", 0],
  ["Nc1ccccc1N", 0],
  ["Nc1ccc2c(c1)C(=O)c1ccccc1C2=O", 1],
  ["CCCCC(CC)COC(=O)CC(C(=O)OCC(CC)CCCC)S(=O)(=O)O (stereo unspecified)", 1],
  ["Cc1ccc2ncccc2c1", 0],
  ["CCCCc1ccc2c(n1)[C@@H](c1ccc(OC)cc1C[C@H](C)C(=O)O)[C@H](C(=O)O)[C@H]2c1ccc2c(c1)OCO2", 1]
]}

Origin of the recorded values: PubChem BioAssay (EPA / NIEHS)
